# Tested system: UniProt:Q4E4E1
# Sequence (Q4E4E1 1-376): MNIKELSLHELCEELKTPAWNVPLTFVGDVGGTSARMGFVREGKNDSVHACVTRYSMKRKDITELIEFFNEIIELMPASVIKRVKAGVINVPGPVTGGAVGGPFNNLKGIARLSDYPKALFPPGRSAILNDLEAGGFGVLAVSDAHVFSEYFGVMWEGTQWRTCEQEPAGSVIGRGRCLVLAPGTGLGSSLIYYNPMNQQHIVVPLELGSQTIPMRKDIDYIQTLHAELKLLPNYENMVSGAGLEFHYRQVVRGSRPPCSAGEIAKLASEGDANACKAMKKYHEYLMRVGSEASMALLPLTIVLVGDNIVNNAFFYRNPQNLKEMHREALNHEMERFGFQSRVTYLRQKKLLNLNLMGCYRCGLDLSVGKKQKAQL
Catalogue of pKi readings, one per entry.
For clarity, pKi is expressed as the negative log10 of concentration in mol/L.

Note to self: pKi recorded for COc1ccc(C2Oc3c(Br)cc(Br)cc3C=C2[N+](=O)[O-])cc1OC (centres unmarked) was 4.46

Note to self: pKi recorded for CCOc1ccc(C2Oc3ccc(Br)cc3C=C2[N+](=O)[O-])cc1OCC (centres unmarked) was 4.34

Note to self: pKi recorded for COc1ccc(C2Oc3c(cc(Br)cc3OC)C=C2[N+](=O)[O-])cc1OC (centres unmarked) was 4.62

Note to self: pKi recorded for O=[N+]([O-])C1=Cc2ccccc2OC1c1c(Cl)cccc1Cl (centres unmarked) was 4.60

Note to self: pKi recorded for CCOc1ccc(C2Oc3ccccc3C=C2[N+](=O)[O-])cc1OCC (centres unmarked) was 4.64
